# experiment.summary: Krafft point
# Assay type: physicochemical
# measurement.parameters: 0.1% in water
# Procedure: The temperature at and above which surfactants begin to form micelles instead of precipitates is referred to as the Krafft point (Tk) and at this temperature the solubility of a surfactant becomes equal to its CMC (numerical value at which micelles are formed). The Krafft point was measured by preparing 650 ml of a 0.1% or 1.0% dispersion of aldonamide in water by weight. If the surfactant was soluble at room temperature, the solution was slowly cooled to 0° C. […] (less than zero). […]
Reported Krafft Point (0.1%) values for the following molecules.

Please review the entries below; each comes with its answer.
molecule	Krafft Point (0.1%)
CCCCCCCCCCCCCCCCCCNC(=O)[C@H](O)[C@@H](O)[C@H](O)[C@H](O)CO [C18 D-Gluconamide]	> 100 °C
CCCCCCCCCCCCCCCCNC(=O)[C@H](O)[C@@H](O)[C@H](O)[C@H](O)CO [C16 D-Gluconamide]	> 100 °C

Reported Krafft Point (0.1%) ( CCCCCCCCCCNC(=O)[C@H](O)[C@@H](O)[C@H](O)[C@H](O)CO [C10 D-Gluconamide] ) = 75 °C

Value of Krafft Point (0.1%) reported for the molecule CCCCCCCCCCCCCCNC(=O)[C@H](O)[C@@H](O)[C@H](O)[C@H](O)CO [C14 D-Gluconamide] is > 100 °C

Input CCCCCCCCCCCCNC(=O)[C@H](O)[C@@H](O)[C@H](O)[C@H](O)CO [C12 D-Gluconamide, dodecyl D-gluconamide] . Output Krafft Point (0.1%): 91 °C

Reported Krafft Point (0.1%) for CCCCCCCCCCCCNC(=O)C(O)C(O)C(O)C(O)C(O)C(O)CO [C12 D-Glucooctonamide] was < 86 °C

Sample CCCCCCCCCCCCNC(=O)[C@@H](O)[C@H](O)[C@H](O)[C@@H](O)CO [C12 L-Galactonamide] ; Krafft Point (0.1%) observed: > 100 °C

###

# experiment.summary: Krafft point
# Type: physicochemical
# measurement.parameters: 1.0% in water
Below: a set of entries, each annotated with reported Krafft Point (1.0%).

molecule	Krafft Point (1.0%)
CCCCCCCC/C=C\CCCCCCCCNCCCNC(=O)[C@H](O)[C@@H](O)[C@H](O[C@@H]1O[C@H](CO)[C@H](O)[C@H](O)[C@H]1O)[C@H](O)CO [Oleylaminopropyl D-Lactobionamide, oleylaminopropyl D-lactobionamide]	< 0 °C

Per the records, this molecule ( CCCCCCCCCCCCOCCCNC(=O)[C@H](O)[C@@H](O)[C@H](O[C@@H]1O[C@H](CO)[C@H](O)[C@H](O)[C@H]1O)[C@H](O)CO [C12 Oxypropyl D-Lactobionamide, dodecyloxypropyl D-lactobionamide] ) has Krafft Point (1.0%) equal to < 0 °C

// sample CCCCCCCCCCCCOC(=O)CCNC(=O)[C@H](O)[C@@H](O)[C@H](O[C@@H]1O[C@H](CO)[C@H](O)[C@H](O)[C@H]1O)[C@H](O)CO [D-Lactobionyl C12 β-Alaninate, N-D-lactobionyl dodecyl β-alaninate] , its Krafft Point (1.0%) was < 0 °C

###

# experiment.summary: Krafft point
# Type: physicochemical
# measurement.parameters: 1.0% in water
assay.endpoint: Krafft Point (1.0%)

Some solved cases for reference:
compound	Krafft Point (1.0%)
CCCCCCCCCCCCOC(=O)CNC(=O)[C@H](O)[C@@H](O)[C@H](O[C@@H]1O[C@H](CO)[C@H](O)[C@H](O)[C@H]1O)[C@H](O)CO [D-Lactobionyl C12 Glycinate, N-D-lactobionyl dodecyl glycinate]	< 0 °C
CCCCCCCCCCCCOCCCNC(=O)[C@H](O)[C@@H](O)[C@H](O[C@H]1O[C@H](CO)[C@@H](O)[C@H](O)[C@H]1O)[C@H](O)CO [C12 Oxypropyl D-Maltobionamide, dodecyloxypropyl D-maltobionamide]	< 0 °C

Shifting focus to the compound that follows.
Measured Krafft Point (1.0%), CCCCCCCCCCCCCCOCCCNC(=O)[C@H](O)[C@@H](O)[C@H](O[C@@H]1O[C@H](CO)[C@H](O)[C@H](O)[C@H]1O)[C@H](O)CO [C14 Oxypropyl D-Lactobionamide, tetradecyloxypropyl D-lactobionamide] : < 0 °C
